Test: BSK_4H_SRB: Viability Assessment in the BioMAP Diversity Plus: 4H Assay (AID 2283027);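 further: cells exposed to compound for 24 h before staining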
Settings: primary human endothelial cells (HUVEC)
Activity calls are given as the source filed them. How the source made its calls: active means hit-call score of the fitted dose curve at least 0.9, where 1 is the maximum; inactive means score below 0.9.
Outcomes: T for active, F for inactive

molecule	groupLabel
CCOc1nc(NC)nc(NC(=O)NS(=O)(=O)c2ccccc2C(=O)OC)n1	F
CC(C)N(C(=O)COc1nnc(C(F)(F)F)s1)c1ccc(F)cc1	F
CCCN(CCOc1c(Cl)cc(Cl)cc1Cl)C(=O)n1ccnc1	T
N#Cc1c(Cl)c(Cl)c(Cl)c(C#N)c1Cl	T
CNC(=O)CSP(=S)(OC)OC	F
CCOCN(C(=O)CCl)c1c(C)cccc1CC	F
C[C@H]1[C@H](c2ccc(Cl)cc2)SC(=O)N1C(=O)NC1CCCCC1	T
O=C(O)C(F)(F)C(F)(F)C(F)(F)C(F)(F)C(F)(F)C(F)(F)C(F)(F)F	F
O=C(O)COc1ccc(Cl)cc1Cl	F
Cc1[nH]c(=O)n(C(C)(C)C)c(=O)c1Cl	F
CC1(C)C(C=C(Cl)Cl)C1C(=O)OC(C#N)c1ccc(F)c(Oc2ccccc2)c1 (configuration not stated)	F
CC(C)OC(=O)Nc1cccc(Cl)c1	F

From: PubChem BioAssay (EPA / NIEHS)
